Molecular target: GST-tagged recombinant full-length human PIM-2 (Homo sapiens (Human))
Sequence (Q9P1W9 whole entry): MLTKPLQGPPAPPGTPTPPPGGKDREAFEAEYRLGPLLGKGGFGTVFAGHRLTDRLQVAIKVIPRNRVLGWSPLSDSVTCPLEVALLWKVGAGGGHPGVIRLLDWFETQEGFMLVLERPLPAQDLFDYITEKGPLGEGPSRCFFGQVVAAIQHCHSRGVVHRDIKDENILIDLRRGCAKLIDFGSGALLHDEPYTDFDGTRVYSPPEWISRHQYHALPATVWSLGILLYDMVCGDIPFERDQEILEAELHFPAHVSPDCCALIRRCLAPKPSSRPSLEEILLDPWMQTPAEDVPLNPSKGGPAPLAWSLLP
Assay: PIM-2 Enzyme Assay
Details: read-out: PIM-2 IC50; 4 μM ATP, […] PIM-2
Structures can show the parent of a compound that is named as a salt.
Please respond with reported IC50 for every item in the list.
Give bare numbers, in µM.

- MOLECULE: "CCC(CC)(CO)COc1cccc2ccc(-c3nnc4ccccn34)nc12"
  RESULT_NUMBER: 1
- MOLECULE: "F[C@@H]1CNCC[C@@H]1Oc1cccc2ccc(-c3nnc4cc(Cl)ccn34)nc12"
  RESULT_NUMBER: 1

Turning to the following molecule.
Provide IC50 value for the following molecule: F[C@@H]1CCNCC[C@H]1Oc1cccc2ccc(-c3nnc4ccc(C5CC5)cn34)nc12 (relative stereo) [Example 98, dihydrochloride]
0.661

###

Biological target: recombinant rat PIM-3 (Rattus norvegicus (Rat))
Test: PIM-3 Enzyme Assay
Settings: read-out: PIM-3 IC50; 30 μM ATP, 0.5 nM PIM-3
Where a name gives a salt, the structure may show the parent alone.
PROPERTY_LABEL: IC50 (nM)
Give bare numbers, in nM.

Worked set:
- MOLECULE: "Fc1cc(OC2CCNCCC2F)c2nc(-c3nnc4ccccn34)ccc2c1 (single isomer, unassigned) [Example 121]"
  READOUT_UNITS: "nM"
  IC50: 16.1
- MOLECULE: "c1cc(OC2CCNCC2)c2nc(-c3nnc4ccccn34)ccc2c1 [Example 9, di-trifluoroacetate]"
  READOUT_UNITS: "nM"
  IC50: 17
- MOLECULE: "CC1(COc2cccc3ccc(-c4nnc5ccccn45)nc23)CCN(CCO)CC1 [Example 86, dihydrochloride]"
  READOUT_UNITS: "nM"
  IC50: 10
- MOLECULE: "COC(=O)[C@@H]1C[C@@H](Oc2cccc3ccc(-c4nnc5ccccn45)nc23)CCN1"
  READOUT_UNITS: "nM"
  IC50: 9
- MOLECULE: "CC(C)(CO)COc1cccc2ccc(-c3nnc4ccccn34)nc12"
  READOUT_UNITS: "nM"
  IC50: 4
- MOLECULE: "c1cc(N[C@@H]2CCNC2)c2nc(-c3nnc4ccccn34)ccc2c1"
  READOUT_UNITS: "nM"
  IC50: 20
- MOLECULE: "c1cc(OC2CCCNCC2)c2nc(-c3nnc4ccccn34)ccc2c1 (single isomer, unassigned) [Example 127]"
  READOUT_UNITS: "nM"
  IC50: 6.8
- MOLECULE: "CCNCC(C)(C)COc1cccc2ccc(-c3nnc4ccccn34)nc12 [Example 27, di-trifluoroacetate]"
  READOUT_UNITS: "nM"
  IC50: 13
- MOLECULE: "CC(C)CCN(CCCN)c1cccc2ccc(-c3nnc4ccccn34)nc12"
  READOUT_UNITS: "nM"
  IC50: 93
- MOLECULE: "CC(C)(COc1cccc2ccc(-c3nnc4ccccn34)nc12)[C@@H](O)CO"
  READOUT_UNITS: "nM"
  IC50: 8.8

Value sought for every listed molecule: IC50.
1. Fc1cc(OC2CCNCCC2F)c2nc(-c3nnc4ccccn34)ccc2c1 (single isomer, unassigned) [Example 120]
2. CCC1(COc2cccc3ccc(-c4nnc5ccccn45)nc23)CCNCC1 [Example 68, dihydrochloride]

[10.9, 10]

Value sought for every listed molecule: IC50.
1. O[C@H]1CC[C@H](Nc2cccc3ccc(-c4nnc5ccccn45)nc23)CC1
2. CC[C@H](CN)C(C)Oc1cccc2ccc(-c3nnc4ccccn34)nc12 (stereo partly drawn)
3. FC1CNCCCC1Oc1cccc2ccc(-c3nnc4ccccn34)nc12 (stereo not drawn) [Example 51, dihydrochloride]
4. OC1(COc2cccc3ccc(-c4nnc5ccccn45)nc23)CCN(Cc2ccccc2)CC1
5. c1cc(O[C@@H]2CCNC2)c2nc(-c3nnc4ccccn34)ccc2c1

1: 25; 2: 19; 3: 10; 4: 112; 5: 33

State, for recombinant rat PIM-3 (Rattus norvegicus (Rat)), measured IC50 of the molecule listed here: `CC(C)(CN)COc1cccc2ccc(-c3nnc4ccccn34)nc12`
2
